Biological target: FGFR2 (Homo sapiens (Human), UniProt P21802)
Sequence (P21802 22-821): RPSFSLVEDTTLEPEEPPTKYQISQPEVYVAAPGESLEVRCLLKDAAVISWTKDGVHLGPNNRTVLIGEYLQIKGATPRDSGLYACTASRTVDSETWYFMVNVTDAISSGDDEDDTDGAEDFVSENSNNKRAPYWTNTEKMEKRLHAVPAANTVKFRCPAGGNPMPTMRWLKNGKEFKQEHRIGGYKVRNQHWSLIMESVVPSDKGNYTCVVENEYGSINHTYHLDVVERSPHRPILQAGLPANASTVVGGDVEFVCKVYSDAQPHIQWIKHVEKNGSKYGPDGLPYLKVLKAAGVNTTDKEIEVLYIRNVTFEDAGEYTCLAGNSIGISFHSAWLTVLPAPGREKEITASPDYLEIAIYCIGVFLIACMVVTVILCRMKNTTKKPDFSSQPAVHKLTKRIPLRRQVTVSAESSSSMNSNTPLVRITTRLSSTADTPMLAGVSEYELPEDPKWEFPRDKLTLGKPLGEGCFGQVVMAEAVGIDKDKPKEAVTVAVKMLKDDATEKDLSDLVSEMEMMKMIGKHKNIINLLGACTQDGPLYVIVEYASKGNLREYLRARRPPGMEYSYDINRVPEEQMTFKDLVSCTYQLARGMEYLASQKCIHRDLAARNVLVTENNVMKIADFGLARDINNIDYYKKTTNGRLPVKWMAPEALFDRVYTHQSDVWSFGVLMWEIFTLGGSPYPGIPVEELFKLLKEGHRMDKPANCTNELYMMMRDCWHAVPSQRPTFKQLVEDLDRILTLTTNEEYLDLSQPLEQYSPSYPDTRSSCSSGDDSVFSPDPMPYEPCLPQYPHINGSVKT
Assay: Kinase assay, binding constants (Kd), kinase-tagged T7 phage, qPCR
readout: Kd

> print(dat)
                                linenotation        reading
 1  C[C@@H](Oc1ccc2[nH]nc(-c3cnc(N4CC5(CCS(=O)(=O)C5)C4)nc3)c2c1)c1c(Cl)cncc1Cl   20 to 100 nM
 2  C[C@@H](Oc1ccc2[nH]nc(-c3cnc(N4CCC5(CC4)CCS(=O)(=O)C5)c(F)c3)c2c1)c1c(Cl)cncc1Cl   20 to 100 nM
 3  COC(=O)N1CC2(C1)CN(c1ccc(-c3n[nH]c4ccc(O[C@H](C)c5c(Cl)cnc(F)c5Cl)cc34)cn1)C2   20 to 100 nM
 4  C[C@@H](Oc1ccc2[nH]nc(-c3ccc(N4CCC5(CC4)C(=O)NCCN5C)nc3)c2c1)c1c(Cl)cncc1Cl     1 to 20 nM
 5  C[C@@H](Oc1ccc2[nH]nc(-c3ccc(C4CCN(C(=O)N(C)C)CC4)nc3)c2c1)c1c(Cl)cncc1Cl     1 to 20 nM
 6  Cc1ncc(Cl)c([C@@H](C)Oc2ccc3[nH]nc(-c4ccc(N5CC6(COC6)C5)nc4)c3c2)c1Cl     1 to 20 nM
 7  Cc1cc2[nH]nc(-c3cnc(N4CC5(C4)CN(S(C)(=O)=O)C5)c(F)c3)c2cc1O[C@H](C)c1c(Cl)cnnc1Cl     1 to 20 nM
 8  COC(=O)N1CC2(C1)CN(c1ccc(-c3n[nH]c4ccc(O[C@@H](C)c5c(C)cnnc5C)cc34)cn1)C2  100 to 300 nM
 9  C[C@@H](Oc1ccc2[nH]nc(-c3cnc(N4CCC(C(C)(C)O)CC4)c(C#N)c3)c2c1)c1c(Cl)cncc1Cl   20 to 100 nM
10  C[C@@H](Oc1ccc2[nH]nc(-c3cnc(N4CC(O)C4)c(C#N)c3)c2c1)c1c(Cl)cncc1Cl  100 to 300 nM
11  Cc1cnnc(C)c1[C@@H](C)Oc1ccc2[nH]nc(-c3cnc(N4CCC[C@@H]4CO)c(C#N)c3)c2c1   20 to 100 nM
12  C[C@@H](Oc1ccc2[nH]nc(-c3ccc(N4CCOCC4)cn3)c2c1)c1c(Cl)cncc1Cl   20 to 100 nM
13  COC(=O)N1CCCC2(C1)CN(c1ccc(-c3n[nH]c4ccc(O[C@H](C)c5c(Cl)cncc5Cl)cc34)cn1)C2     1 to 20 nM
14  COc1cc2[nH]nc(-c3cnc(N4CC5(C4)CN(S(C)(=O)=O)C5)c(C#N)c3)c2cc1O[C@H](C)c1c(Cl)cncc1Cl     1 to 20 nM
15  Cc1cc(-c2n[nH]c3ccc(O[C@H](C)c4c(Cl)cnc(C)c4Cl)cc23)cnc1N1CC(CO)(CO)C1  100 to 300 nM
16  COC(=O)N1CC2(C1)CN(c1ccc(-c3n[nH]c4ccc(O[C@H](C)c5c(Cl)cncc5Cl)cc34)cn1)C2     1 to 20 nM
17  C[C@@H](Oc1ccc2[nH]nc(-c3cnc(N4CCC5(CC4)CC(=O)NC5=O)nc3)c2c1)c1c(Cl)cncc1Cl   20 to 100 nM
18  C[C@@H](Oc1ccc2[nH]nc(-c3cnc(N4CC5(CCN(S(C)(=O)=O)CC5)C4)nc3)c2c1)c1c(Cl)cncc1Cl   20 to 100 nM
19  C[C@@H](Oc1ccc2[nH]nc(-c3cnc(N4CCC[C@@H]4CO)c(C#N)c3)c2c1)c1c(Cl)cncc1Cl   20 to 100 nM
20  Cc1cnnc(C)c1[C@@H](C)Oc1ccc2[nH]nc(-c3ccc(N4CC5(COC5)C4)nc3)c2c1     1 to 20 nM
